assayNotes: in vivo
measurementParameters: male, NODSCID 1L2RγKO, mouse, iv, total radioactivity, Bone uptake
readoutName: tissue uptake at 1 h (%ID/g)
# value in %ID/g; strip the unit string

Ask: Please look up its tissue uptake at 1 h: O=C(O)CCCCC(NC(=O)N[C@@H](CCCCNC(=O)[C@H](Cc1c2ccccc2cc2ccccc12)NC(=O)[C@H]1CC[C@H](CNC(=O)CN2CCN(CC(=O)O)CCN(CC(=O)O)CCN(CC(=O)O)CC2)CC1)C(=O)O)C(=O)O (single isomer, unassigned) [68Ga-HTK03189A, metal not drawn]
Result: 0.12

Ask: Can you share its tissue uptake at 1 h? I mean this compound: O=C(O)CCC[C@H](NC(=O)N[C@@H](CCCCNC(=O)[C@H](Cc1c2ccccc2cc2ccccc12)NC(=O)[C@H]1CC[C@H](CNC(=O)CN2CCN(CC(=O)O)CCN(CC(=O)O)CCN(CC(=O)O)CC2)CC1)C(=O)O)C(=O)O [68Ga-HTK03149, metal not drawn]
Result: 0.1

Ask: Bench note: what tissue uptake at 1 h did O=C(O)CN1CCN(CC(=O)O)CCN(CC(=O)NC[C@H]2CC[C@H](C(=O)N[C@@H](Cc3c4ccccc4cc4ccccc34)C(=O)NCCCC[C@H](NC(=O)N[C@@H](C[C@H](F)C(=O)O)C(=O)O)C(=O)O)CC2)CCN(CC(=O)O)CC1 [68Ga-HTK04040, metal not drawn] show?
Result: 0.18

Ask: Fill in: tissue uptake at 1 h of O=C(O)CN1CCN(CC(=O)O)CCN(CC(=O)NC[C@H]2CC[C@H](C(=O)N[C@@H](Cc3c4ccccc4cc4ccccc34)C(=O)NCCCC[C@H](NC(=O)N[C@@H](C[C@@H](F)C(=O)O)C(=O)O)C(=O)O)CC2)CCN(CC(=O)O)CC1 [68Ga-HTK04033, metal not drawn] is ___
Result: 0.08

Ask: Quick one: tissue uptake at 1 h of O=C(O)C[C@H](NC(=O)N[C@@H](CCCCNC(=O)[C@H](Cc1c2ccccc2cc2ccccc12)NC(=O)[C@H]1CC[C@H](CNC(=O)CN2CCN(CC(=O)O)CCN(CC(=O)O)CCN(CC(=O)O)CC2)CC1)C(=O)O)C(=O)O [68Ga-HTK03161, metal not drawn] ?
Result: 0.11

Ask: I would be grateful if you could share the reported tissue uptake at 1 h for O=C(O)CCC[C@H](NC(=O)N[C@@H](CCCCNC(=O)[C@H](Cc1cccc(I)c1)NC(=O)[C@H]1CC[C@H](CNC(=O)CN2CCN(CC(=O)O)CCN(CC(=O)O)CCN(CC(=O)O)CC2)CC1)C(=O)O)C(=O)O [68Ga-HTK04053, metal not drawn] .
Result: 0.04

Ask: Item O=C(O)CCC[C@H](NC(=O)N[C@@H](CCCCNC(=O)[C@H](Cc1c2ccccc2cc2ccccc12)NC(=O)Cc1ccc(CNC(=O)CN2CCN(CC(=O)O)CCN(CC(=O)O)CCN(CC(=O)O)CC2)cc1)C(=O)O)C(=O)O [68Ga-HTK04036, metal not drawn] has what recorded tissue uptake at 1 h?
Result: 0.1

###

assayNotes: in vivo
measurementParameters: male, NODSCID 1L2RγKO, mouse, iv, total radioactivity, Bone uptake
Criterion: tissue uptake at 1 h strictly under 0.1 %ID/g. Met: 1. Not met: 0.

Ask: Please determine if O=C(O)CCC[C@H](NC(=O)N[C@@H](CCCCNC(=O)[C@H](Cc1c2ccccc2cc2ccccc12)NC(=O)Cc1cccc(CNC(=O)CN2CCN(CC(=O)O)CCN(CC(=O)O)CCN(CC(=O)O)CC2)c1)C(=O)O)C(=O)O [68Ga-HTK04037, metal not drawn] is below 0.1 %ID/g in terms of tissue uptake at 1 h.
Result: 1

Ask: Consider O=C(O)CCC[C@H](NC(=O)N[C@@H](CCCCNC(=O)[C@H](Cc1ccc2ccccc2c1)NC(=O)[C@H]1CC[C@H](CNC(=O)CN2CCN(CC(=O)O)CCN(CC(=O)O)CCN(CC(=O)O)CC2)CC1)C(=O)O)C(=O)O [68Ga-HTK03169, metal not drawn] . Does its tissue uptake at 1 h lie strictly below 0.1 %ID/g?
Result: 1

Ask: In the record for O=C(O)CCC[C@H](NC(=O)N[C@@H](CCCCNC(=O)[C@H](Cc1c2ccccc2cc2ccccc12)NC(=O)c1ccc(NC(=O)CN2CCN(CC(=O)O)CCN(CC(=O)O)CCN(CC(=O)O)CC2)cc1)C(=O)O)C(=O)O [68Ga-HTK04041, metal not drawn] , is tissue uptake at 1 h less than 0.1 %ID/g?
Result: 0

Ask: Hello, is tissue uptake at 1 h of the following compound strictly smaller than 0.1 %ID/g? O=C(O)COC[C@H](NC(=O)N[C@@H](CCCCNC(=O)[C@H](Cc1c2ccccc2cc2ccccc12)NC(=O)[C@H]1CC[C@H](CNC(=O)CN2CCN(CC(=O)O)CCN(CC(=O)O)CCN(CC(=O)O)CC2)CC1)C(=O)O)C(=O)O [68Ga-HTK03187, metal not drawn]
Result: 0

Ask: Given O=C(O)CC[C@H](NC(=O)N[C@@H](CCCCNC(=O)[C@H](Cc1c2ccccc2cc2ccccc12)NC(=O)[C@H]1CC[C@H](CNC(=O)CN2CCN(CC(=O)O)CCN(CC(=O)O)CCN(CC(=O)O)CC2)CC1)C(=O)O)C(=O)O [68Ga-HTK03041, metal not drawn] , is recorded tissue uptake at 1 h strictly lower than 0.1 %ID/g?
Result: 0

###

assayNotes: in vivo
Set-up: species or system mice
measurementParameters: male, NODSCID 1L2RγKO, mouse, iv, total radioactivity, Liver uptake
readoutName: tissue uptake at 120 h (%ID/g)
Give a bare numeral; the unit %ID/g is implied.

Ask: tissue uptake at 120 h for O=C(O)CCC[C@H](NC(=O)N[C@@H](CCCCNC(=O)[C@H](Cc1c2ccccc2cc2ccccc12)NC(=O)[C@H]1CC[C@H](CNC(=O)CN2CCN(CC(=O)O)CCN(CC(=O)O)CCN(CC(=O)O)CC2)CC1)C(=O)O)C(=O)O [177Lu-HTK03149, metal not drawn] ?
Result: 0.08

Ask: So what's the measured tissue uptake at 120 h for this one? COc1ccc(CCCC(=O)NCC(=O)N[C@@H](CCCCNC(=O)CN2CCN(CC(=O)O)CCN(CC(=O)O)CCN(CC(=O)O)CC2)C(=O)NC[C@H]2CC[C@H](C(=O)N[C@@H](Cc3c4ccccc4cc4ccccc34)C(=O)NCCCC[C@H](NC(=O)N[C@@H](CCCC(=O)O)C(=O)O)C(=O)O)CC2)cc1 [177Lu-HTK03170, metal not drawn]
Result: 0.23

Ask: Sample COc1ccc(CCCC(=O)NCC(=O)N[C@@H](CCCCNC(=O)CN2CCN(CC(=O)O)CCN(CC(=O)O)CCN(CC(=O)O)CC2)C(=O)NC[C@H]2CC[C@H](C(=O)N[C@@H](Cc3c4ccccc4cc4ccccc34)C(=O)NCCCC[C@H](NC(=O)N[C@@H](COCC(=O)O)C(=O)O)C(=O)O)CC2)cc1 [177Lu-HTK04028, metal not drawn] — what was its tissue uptake at 120 h?
Result: 0.31

###

Tested on: PSMA-expressing LNCaP cancer xenografts
measurementParameters: mouse, in vivo
Tick YES if Tumor: Kidney ratio is 1 or greater. Tick NO if Tumor: Kidney ratio is less than 1.

Ask: Check this compound for Tumor: Kidney ratio at or above 1: O=C(O)CCCCC(NC(=O)N[C@@H](CCCCNC(=O)[C@H](Cc1c2ccccc2cc2ccccc12)NC(=O)[C@H]1CC[C@H](CNC(=O)CN2CCN(CC(=O)O)CCN(CC(=O)O)CCN(CC(=O)O)CC2)CC1)C(=O)O)C(=O)O (single isomer, unassigned) [68Ga-HTK03189A, metal not drawn]
Result: NO

Ask: Determine whether measured Tumor: Kidney ratio meets or exceeds 1 for O=C(O)COC[C@H](NC(=O)N[C@@H](CCCCNC(=O)[C@H](Cc1c2ccccc2cc2ccccc12)NC(=O)[C@H]1CC[C@H](CNC(=O)CN2CCN(CC(=O)O)CCN(CC(=O)O)CCN(CC(=O)O)CC2)CC1)C(=O)O)C(=O)O [68Ga-HTK03187, metal not drawn]
Result: YES

Ask: State whether the measured Tumor: Kidney ratio reaches 1, counting equality as reaching it, for O=C(O)CCC[C@H](NC(=O)N[C@@H](CCCCNC(=O)[C@H](Cc1ccc2ccccc2c1)NC(=O)[C@H]1CC[C@H](CNC(=O)CN2CCN(CC(=O)O)CCN(CC(=O)O)CCN(CC(=O)O)CC2)CC1)C(=O)O)C(=O)O [68Ga-HTK03169, metal not drawn]
Result: YES

Ask: Does the compound O=C(O)CSC[C@H](NC(=O)N[C@@H](CCCCNC(=O)[C@H](Cc1c2ccccc2cc2ccccc12)NC(=O)[C@H]1CC[C@H](CNC(=O)CN2CCN(CC(=O)O)CCN(CC(=O)O)CCN(CC(=O)O)CC2)CC1)C(=O)O)C(=O)O [68Ga-HTK03177, metal not drawn] have recorded Tumor: Kidney ratio that is 1 or more?
Result: YES

Ask: hey, is Tumor: Kidney ratio for this one >= 1? O=C(O)CCC[C@H](NC(=O)N[C@@H](CCCCNC(=O)[C@H](Cc1c2ccccc2cc2ccccc12)NC(=O)c1ccc(NC(=O)CN2CCN(CC(=O)O)CCN(CC(=O)O)CCN(CC(=O)O)CC2)cc1)C(=O)O)C(=O)O [68Ga-HTK04041, metal not drawn]
Result: YES

Ask: In plain terms: is recorded Tumor: Kidney ratio at least 1 for O=C(O)CCCCC(NC(=O)N[C@@H](CCCCNC(=O)[C@H](Cc1c2ccccc2cc2ccccc12)NC(=O)[C@H]1CC[C@H](CNC(=O)CN2CCN(CC(=O)O)CCN(CC(=O)O)CCN(CC(=O)O)CC2)CC1)C(=O)O)C(=O)O (single isomer, unassigned) [68Ga-HTK03189B, metal not drawn] ?
Result: NO

Ask: Please check the record O=C(O)C[C@H](NC(=O)N[C@@H](CCCCNC(=O)[C@H](Cc1c2ccccc2cc2ccccc12)NC(=O)[C@H]1CC[C@H](CNC(=O)CN2CCN(CC(=O)O)CCN(CC(=O)O)CCN(CC(=O)O)CC2)CC1)C(=O)O)C(=O)O [68Ga-HTK03161, metal not drawn] and state if its Tumor: Kidney ratio is at or above 1.
Result: YES

Taken from patent US11504441B2.
